Reported values of activity coefficient for individual entries
Experiment: activity coefficient (dimensionless); of the first substance listed, at infinite dilution; xn = mol fraction of the nth substance listed
Conditions: 368.15 K; 101.33 kPa; Liquid; Chromatography; x1 = 0
Keep the answer to the number alone.

// solved cases for activity coefficient follow
>  <compound>
C=Cc1ccccc1 [styrene] + CCCCCCCCCCCC[N+](C)(C)CCOc1ccccc1.N#C[N-]C#N

>  <activity coefficient>
1.06

$$$$
>  <compound>
C1COCCO1 [1,4-dioxane] + CCCCCCCCCCCC[N+](C)(C)CCOc1ccccc1.O=S(=O)([N-]S(=O)(=O)C(F)(F)F)C(F)(F)F

>  <activity coefficient>
0.619

$$$$

Item: CCC[N+](=O)[O-] [1-nitropropane] + CCCCCCCCCCCC[N+](C)(C)CCOc1ccccc1.N#C[N-]C#N | activity coefficient: 0.903

Item: C1CCCCCCC1 [cyclooctane] + CCCCCCCCCCCC[N+](C)(C)CCOc1ccccc1.N#C[N-]C#N | activity coefficient: 3.76

====

Assay: activity coefficient (dimensionless); of the first substance listed, at infinite dilution; xn = mol fraction of the nth substance listed
Details: 338.15 K; 101.33 kPa; Liquid; Chromatography; x1 = 0
experimental_readout: activity coefficient
Keep the answer to the number alone.

Item: CC(C)CC(C)(C)C [2,2,4-trimethylpentane] + CCCCCCCCCCCC[N+](C)(C)CCOc1ccccc1.N#C[N-]C#N | activity coefficient: 7.15

Item: c1ccncc1 [pyridine] + CCCCCCCCCCCC[N+](C)(C)CCOc1ccccc1.O=S(=O)([N-]S(=O)(=O)C(F)(F)F)C(F)(F)F | activity coefficient: 0.313

Item: CCCCO [butan-1-ol] + CCCCCCCCCCCC[N+](C)(C)CCOc1ccccc1.N#C[N-]C#N | activity coefficient: 0.473

Item: Cc1ccccc1 [toluene] + CCCCCCCCCCCC[N+](C)(C)CCOc1ccccc1.O=S(=O)([N-]S(=O)(=O)C(F)(F)F)C(F)(F)F | activity coefficient: 0.766

====

Experiment: activity coefficient (dimensionless); of the first substance listed, at infinite dilution; xn = mol fraction of the nth substance listed
Conditions: 338.15 K; 101.33 kPa; Liquid; Chromatography; x1 = 0
experimental_readout: activity coefficient
Keep the answer to the number alone.

>  <molecule>
CC(C)CO [2-methyl-1-propanol] + CCCCCCCCCCCC[N+](C)(C)CCOc1ccccc1.O=S(=O)([N-]S(=O)(=O)C(F)(F)F)C(F)(F)F

>  <activity coefficient>
1.26

$$$$
>  <molecule>
CCC(C)CC [3-methylpentane] + CCCCCCCCCCCC[N+](C)(C)CCOc1ccccc1.O=S(=O)([N-]S(=O)(=O)C(F)(F)F)C(F)(F)F

>  <activity coefficient>
2.88

$$$$

Item: CCCCCCCCCC [decane] + CCCCCCCCCCCC[N+](C)(C)CCOc1ccccc1.N#C[N-]C#N | activity coefficient: 9.17

====

Assay: activity coefficient (dimensionless); of the first substance listed, at infinite dilution; xn = mol fraction of the nth substance listed
Conditions: 348.15 K; 101.33 kPa; Liquid; Chromatography; x1 = 0
Binary call on activity coefficient with cut-off 1: strictly below means rule met, and equality or higher means rule not met.

Recorded results for 5 compounds are shown here.
>  <compound>
CCC[N+](=O)[O-] [1-nitropropane] + CCCCCCCCCCCC[N+](C)(C)CCOc1ccccc1.N#C[N-]C#N

>  <class>
rule met

$$$$
>  <compound>
c1ccsc1 [thiophene] + CCCCCCCCCCCC[N+](C)(C)CCOc1ccccc1.N#C[N-]C#N

>  <class>
rule met

$$$$
>  <compound>
CCCO [propan-1-ol] + CCCCCCCCCCCC[N+](C)(C)CCOc1ccccc1.O=S(=O)([N-]S(=O)(=O)C(F)(F)F)C(F)(F)F

>  <class>
rule not met

$$$$
>  <compound>
CCOC(C)(C)C [2-ethoxy-2-methylpropane] + CCCCCCCCCCCC[N+](C)(C)CCOc1ccccc1.O=S(=O)([N-]S(=O)(=O)C(F)(F)F)C(F)(F)F

>  <class>
rule not met

$$$$
>  <compound>
CCC(=O)OC [methyl propanoate] + CCCCCCCCCCCC[N+](C)(C)CCOc1ccccc1.N#C[N-]C#N

>  <class>
rule not met

$$$$

Turning now to a further compound:
Request: Check if activity coefficient falls below 1 for C1CCCCC1 [cyclohexane] + CCCCCCCCCCCC[N+](C)(C)CCOc1ccccc1.N#C[N-]C#N .
Result: rule not met

====

Test: activity coefficient (dimensionless); of the first substance listed, at infinite dilution; xn = mol fraction of the nth substance listed
Conditions: 378.15 K; 101.33 kPa; Liquid; Chromatography; x1 = 0
experimental_readout: activity coefficient

>  <molecule>
CC1CCCCC1 [methylcyclohexane] + CCCCCCCCCCCC[N+](C)(C)CCOc1ccccc1.N#C[N-]C#N

>  <experimental_result>
3.95

$$$$
>  <molecule>
CCC(C)(C)OC [2-methoxy-2-methylbutane] + CCCCCCCCCCCC[N+](C)(C)CCOc1ccccc1.N#C[N-]C#N

>  <experimental_result>
2.81

$$$$

Item: CCCC(=O)OC [methyl butanoate] + CCCCCCCCCCCC[N+](C)(C)CCOc1ccccc1.N#C[N-]C#N | activity coefficient: 1.5

Item: CCCC(C)=O [pentan-2-one] + CCCCCCCCCCCC[N+](C)(C)CCOc1ccccc1.N#C[N-]C#N | activity coefficient: 1.07

====

Assay: activity coefficient (dimensionless); of the first substance listed, at infinite dilution; xn = mol fraction of the nth substance listed
Settings: 368.15 K; 101.33 kPa; Liquid; Chromatography; x1 = 0
experimental_readout: activity coefficient
Keep the answer to the number alone.

// solved cases for activity coefficient follow
>  <molecule>
CC#N [acetonitrile] + CCCCCCCCCCCC[N+](C)(C)CCOc1ccccc1.N#C[N-]C#N

>  <experimental_result>
0.793

$$$$
>  <molecule>
Cc1cccc(C)c1 [1,3-dimethylbenzene] + CCCCCCCCCCCC[N+](C)(C)CCOc1ccccc1.N#C[N-]C#N

>  <experimental_result>
1.61

$$$$
>  <molecule>
c1ccsc1 [thiophene] + CCCCCCCCCCCC[N+](C)(C)CCOc1ccccc1.N#C[N-]C#N

>  <experimental_result>
0.749

$$$$

Item: CCC(=O)CC [pentan-3-one] + CCCCCCCCCCCC[N+](C)(C)CCOc1ccccc1.O=S(=O)([N-]S(=O)(=O)C(F)(F)F)C(F)(F)F | activity coefficient: 0.511

Item: C#CCCCCCC [1-octyne] + CCCCCCCCCCCC[N+](C)(C)CCOc1ccccc1.O=S(=O)([N-]S(=O)(=O)C(F)(F)F)C(F)(F)F | activity coefficient: 2.12

Item: CCCc1ccccc1 [propylbenzene] + CCCCCCCCCCCC[N+](C)(C)CCOc1ccccc1.O=S(=O)([N-]S(=O)(=O)C(F)(F)F)C(F)(F)F | activity coefficient: 1.37

Item: C1CCCCCCC1 [cyclooctane] + CCCCCCCCCCCC[N+](C)(C)CCOc1ccccc1.O=S(=O)([N-]S(=O)(=O)C(F)(F)F)C(F)(F)F | activity coefficient: 2.75

====

Assay: activity coefficient (dimensionless); of the first substance listed, at infinite dilution; xn = mol fraction of the nth substance listed
Conditions: 358.15 K; 101.33 kPa; Liquid; Chromatography; x1 = 0
Reported values of activity coefficient for individual entries
Keep the answer to the number alone.

// solved cases for activity coefficient follow
>  <compound>
CC(C)c1ccccc1 [isopropylbenzene] + CCCCCCCCCCCC[N+](C)(C)CCOc1ccccc1.O=S(=O)([N-]S(=O)(=O)C(F)(F)F)C(F)(F)F

>  <activity coefficient>
1.34

$$$$
>  <compound>
CCC(C)(C)C [2,2-dimethylbutane] + CCCCCCCCCCCC[N+](C)(C)CCOc1ccccc1.N#C[N-]C#N

>  <activity coefficient>
6.14

$$$$
>  <compound>
C=COC(C)=O [vinyl acetate] + CCCCCCCCCCCC[N+](C)(C)CCOc1ccccc1.N#C[N-]C#N

>  <activity coefficient>
1.35

$$$$

Item: CCCCCC [hexane] + CCCCCCCCCCCC[N+](C)(C)CCOc1ccccc1.O=S(=O)([N-]S(=O)(=O)C(F)(F)F)C(F)(F)F | activity coefficient: 3.21

Item: CCCCO [butan-1-ol] + CCCCCCCCCCCC[N+](C)(C)CCOc1ccccc1.O=S(=O)([N-]S(=O)(=O)C(F)(F)F)C(F)(F)F | activity coefficient: 1.19

Item: O [water] + CCCCCCCCCCCC[N+](C)(C)CCOc1ccccc1.O=S(=O)([N-]S(=O)(=O)C(F)(F)F)C(F)(F)F | activity coefficient: 2.59

Item: C=CCCC [1-pentene] + CCCCCCCCCCCC[N+](C)(C)CCOc1ccccc1.N#C[N-]C#N | activity coefficient: 3.48
